# key: entry, value: IC50 at 40 h
Procedure Summary: Cytotoxicity against human HepG2 cells incubated for 40 hrs by celltiter-glo luminescent cell viability assay
Type: toxicity, cell-based

{"Line Notation": "CC[C@H](C)[C@@H](NC(=O)[C@@H](NC(=O)[C@H](CCC(=O)O)NC(=O)[C@H](Cc1ccccc1)NC(=O)[C@@H](CCN)NC(=O)[C@H](CCN)NC(=O)[C@H](CO)NC(=O)[C@@H](C)NC(=O)[C@@H](CO)NC(=O)CNC(=O)[C@@H](CCN)NC(=O)[C@H](NC(=O)[C@H](C)N)C(C)C)C(C)C)C(=O)N[C@@H](C)C(=O)O", "IC50 at 40 h": "> 170 µg/mL"}
{"Line Notation": "CC[C@H](C)[C@@H](NC(=O)[C@@H](NC(=O)[C@H](CCC(=O)O)NC(=O)[C@H](Cc1ccccc1)NC(=O)[C@@H](CCN)NC(=O)[C@H](CCN)NC(=O)[C@H](CO)NC(=O)[C@@H](Cc1c[nH]c2ccccc12)NC(=O)[C@@H](CO)NC(=O)CNC(=O)[C@@H](CCN)NC(=O)[C@H](NC(=O)[C@@H](N)CO)C(C)C)C(C)C)C(=O)N[C@@H](C)C(=O)O", "IC50 at 40 h": "> 170 µg/mL"}
{"Line Notation": "CC[C@H](C)[C@@H](NC(=O)[C@@H](NC(=O)[C@H](CCC(=O)O)NC(=O)[C@H](Cc1ccccc1)NC(=O)[C@@H](CCN)NC(=O)[C@H](CCN)NC(=O)[C@H](CO)NC(=O)[C@@H](Cc1c[nH]c2ccccc12)NC(=O)[C@@H](C)NC(=O)CNC(=O)[C@@H](CCN)NC(=O)[C@H](N)C(C)C)C(C)C)C(=O)N[C@@H](C)C(=O)O", "IC50 at 40 h": "> 170 µg/mL"}

The reported measurements were obtained from ChEMBL document CHEMBL5518181.
